B1: TRAF3IP2 (parent)
chain: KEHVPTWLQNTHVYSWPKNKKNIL

# Variants of: B1
# test-summary: protein stability index of a GFP-peptide fusion (GPS, HEK-293T) (PSI 1-6); higher = more stable;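 further: lentivirally expressed fusions sorted by FACS into six bins by GFP to DsRed ratio, PSI derived from sequencing read proportions per bin multiplied by bin number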
# experimental-context: c terminus: a fixed tail appended
Give protein stability index for every item shown.
Numbers only.

INSERT INTO assay_data (sequence_data, parameter_measured, meas_value) VALUES
  ('KEHVPTWLQNTHMYSWPKNKKNIL [V13M]', 'protein stability index', 2.88),
  ('KEHVPTWLQNTHVYSWPKNKKNIK [L24K]', 'protein stability index', 3.49),
  ('KEHWPTWLQNTHVYSWPKNKKNIL [V4W]', 'protein stability index', 1.93);

Could you now consider this next variant?
Looking for the measured protein stability index of KEHVPTWLQNTHVYSCPKNKKNIL [W16C] , can you help?
2.88
